Hello, the source for this data is patent US8541442B2, in case you need it.

# Test system: human prostate cancer cell line DU145
# ASSAY_EXPLANATION: Alamar Blue cell proliferation assay, DU145
# Assay type: cell-based
# ASSAY_SETUP: DU145 cells
ENDPOINT_LABEL: DU145 cell proliferation inhibition pIC50

>>> reported_measurement("Cc1cc(Nc2ccncc2)ccc1NCCc1c[nH]c2c(C(O)C(C)C)cccc12 (stereo not shown) [Compound 22]")
5.07
>>> reported_measurement("Cc1cc(Nc2ccnc3c2CCC3(C)O)ccc1NCCc1c[nH]c2c(C(C)O)cccc12 (stereo not shown) [Compound 10]")
5.65
>>> reported_measurement("COC1CCc2c(Nc3ccc(NCCc4c[nH]c5c(C(C)(C)O)cccc45)c(C)c3)ccnc21 (single isomer, unassigned) [Compound 28]")
6.52
>>> reported_measurement("CC(C)(O)c1cccc2c(CCNc3ccc(Nc4ccnc5c4CCC5(C)O)cc3)c[nH]c12 (single isomer, unassigned) [Compound 31]")
6.04

* * *

# Test system: human U87 glioma tumor
# ASSAY_EXPLANATION: In vivo anti tumour effects, U87 glioma xenograft
# ASSAY_SETUP: Mus musculus, U-87 MG, po, 240 h, U87 xenograft in NMRI Nude mice, 20 mg/kg p.o. QD for 5 days, day 10 after start dosing; read-out: % T/C day 10
ENDPOINT_LABEL: response vs control in vivo at 20 mg/kg

>>> reported_measurement("OCc1cccc2c(CCNc3ccc(Nc4ccnc5c4CCC5O)cc3)c[nH]c12 (stereo not shown) [Compound 6]")
"99%"
>>> reported_measurement("Cc1cc(Nc2ccnc3c2CCC3O)ccc1NCCc1c[nH]c2c(CCC(C)O)cccc12 (stereo not shown) [Compound 9]")
"113%"
>>> reported_measurement("Cc1cc(Nc2ccnc(CO)c2)ccc1NCCc1c[nH]c2c(C(C)O)cccc12 (stereo not shown) [Compound 5]")
"67%"
>>> reported_measurement("Cc1cc(Nc2ccncc2)ccc1NCCc1c[nH]c2c(C(C)(C)O)cccc12 [Compound 2]")
"-0.23%"
>>> reported_measurement("Cc1cc(Nc2ccnc3c2CCC3=O)ccc1NCCc1c[nH]c2c(C(C)O)cccc12 (stereo not shown) [Compound 4]")
"129%"
>>> reported_measurement("Cc1cc(Nc2ccnc3c2CCC3O)ccc1NCCc1c[nH]c2c(C(C)(C)O)cccc12 (stereo not shown) [Compound 18]")
"-3%"
>>> reported_measurement("Cc1cc(Nc2ccnc3c2CCC3(C)O)ccc1NCCc1c[nH]c2c(C(C)(C)O)cccc12 (stereo not shown) [Compound 1]")
"8%"

* * *

# Test system: Male NMRI mice
# ASSAY_EXPLANATION: Ro-4-1284 antagonism in mice
# Type: in vivo
# ASSAY_SETUP: 80 mg/kg oral administration, 3 animals
ENDPOINT_LABEL: activity on reversal of miosis

>>> reported_measurement("COC1CCc2c(Nc3ccc(NCCc4c[nH]c5c(C(C)(C)O)cccc45)c(C)c3)ccnc21 (single isomer, unassigned) [Compound 29]")
"did not show activity"
>>> reported_measurement("Cc1cc(Nc2ccnc3c2CCC3(C)O)ccc1NCCc1c[nH]c2c(C(C)(C)O)cccc12 (stereo not drawn) [Compound 1]")
"did not show activity"
>>> reported_measurement("COC1CCc2c(Nc3ccc(NCCc4c[nH]c5c(C(C)(C)O)cccc45)c(C)c3)ccnc21 (single isomer, unassigned) [Compound 28]")
"did not show activity"
